Reported EC50 values for a set of binders
- target: Rap^3T (Bacillus phage phi3T)
- protocolDescription: MST; Rap^3T labelled with NT-647 (RED-NHS) at 20 nM; peptides in a 16-point 2-fold dilution from 2 to 3 x 10^-5 μm; 20 mM Tris-HCl (pH 8), 250 mM NaCl, 0.1% pluronic, 5% glycerol; 15 min at room temperature; Hill model

binder	EC50 [nM]
RRGHTA	5.28
SRGHTS	20.8
RRGHTAS	6.7
RGHTS	69.8
